The measured values listed here are drawn from ChEMBL document CHEMBL1157900.

assay: Selectivity ratio of IC50 for Electric eel AChE to IC50 for equine serum BChE
One threshold, 10, splits the recorded Ratio IC50 values: lower ones are t, equal or higher ones are f.

[Q] Dear reviewer, please state whether c1ccc2c(c1)CCN1CCc3cc(OCCCOc4ccc5c(c4)CCN4CCc6ccccc6C54)ccc3C21 (centres undefined) has Ratio IC50 strictly beneath 10.
[A] f

[Q] Same question for c1ccc2c(c1)CCN1CCc3cc(OCCCCCCCCOc4ccc5c(c4)CCN4CCc6ccccc6C54)ccc3C21 (centres undefined) please.
[A] t

[Q] Same question for c1ccc2c(c1)CCN1CCc3cc(OCCCCCCOc4ccc5c(c4)CCN4CCc6ccccc6C54)ccc3C21 (centres undefined) please.
[A] f

[Q] Same question for COc1ccc2c(c1)CC[N+]1(C)CCc3ccccc3C21 (centres undefined) please.
[A] t

[Q] Same question for c1ccc2c(c1)CCN1CCc3cc(OCCCCCOc4ccc5c(c4)CCN4CCc6ccccc6C54)ccc3C21 (centres undefined) please.
[A] f

[Q] Same question for C[N+]12CCc3ccccc3C1c1ccc(OCCCCOc3ccc4c(c3)CC[N+]3(C)CCc5ccccc5C43)cc1CC2 (centres undefined) please.
[A] t

[Q] Same question for c1ccc2c(c1)CCN1CCc3cc(OCCCCOc4ccc5c(c4)CCN4CCc6ccccc6C54)ccc3C21 (centres undefined) please.
[A] f

[Q] Same question for c1ccc2c(c1)CCN1CCc3cc(OCCCCCCCCCCCCOc4ccc5c(c4)CCN4CCc6ccccc6C54)ccc3C21 (centres undefined) please.
[A] t

[Q] Same question for C[N+]12CCc3ccccc3C1c1ccc(OCCCCCCOc3ccc4c(c3)CC[N+]3(C)CCc5ccccc5C43)cc1CC2 (centres undefined) please.
[A] t

[Q] Same question for C[N+]12CCc3ccccc3C1c1ccc(OCCCCCOc3ccc4c(c3)CC[N+]3(C)CCc5ccccc5C43)cc1CC2 (centres undefined) please.
[A] t

[Q] Same question for C[N+]12CCc3ccccc3C1c1ccc(OCCCCCCCCCCCCOc3ccc4c(c3)CC[N+]3(C)CCc5ccccc5C43)cc1CC2 (centres undefined) please.
[A] t

[Q] Same question for CN1CCc2ccccc2Cc2ccc(OCCCOc3ccc4c(c3)CCN(C)CCc3ccccc3C4)cc2CC1 please.
[A] f

[Q] Same question for C[N+]12CCc3ccccc3C1c1ccc(OCCCCCCCCOc3ccc4c(c3)CC[N+]3(C)CCc5ccccc5C43)cc1CC2 (centres undefined) please.
[A] t
